electric eel acetylcholinesterase (eeAChE) (Electrophorus electricus, UniProt O42275) measurements of IC50, listed per entry.
Sequence (O42275 24-633): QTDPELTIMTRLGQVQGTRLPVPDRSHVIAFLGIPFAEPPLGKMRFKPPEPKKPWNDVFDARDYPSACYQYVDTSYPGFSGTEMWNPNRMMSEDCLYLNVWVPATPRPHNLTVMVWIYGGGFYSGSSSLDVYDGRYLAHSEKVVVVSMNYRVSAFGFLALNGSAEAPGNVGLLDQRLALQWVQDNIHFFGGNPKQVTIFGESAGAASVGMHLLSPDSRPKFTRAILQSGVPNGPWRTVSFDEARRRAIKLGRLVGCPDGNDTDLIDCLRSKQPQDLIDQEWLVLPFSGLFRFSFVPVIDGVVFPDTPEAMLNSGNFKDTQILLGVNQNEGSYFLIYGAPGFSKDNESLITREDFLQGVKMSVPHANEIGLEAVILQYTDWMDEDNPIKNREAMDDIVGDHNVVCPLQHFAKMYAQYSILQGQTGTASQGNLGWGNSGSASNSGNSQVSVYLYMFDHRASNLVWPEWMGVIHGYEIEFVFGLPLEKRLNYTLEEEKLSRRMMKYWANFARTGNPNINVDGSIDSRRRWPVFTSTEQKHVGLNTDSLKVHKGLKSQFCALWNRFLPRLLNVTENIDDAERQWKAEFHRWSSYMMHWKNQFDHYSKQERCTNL
Report the figure in µM without appending any unit label.

Recorded results for 2 compounds are shown here.
CCN(C)C(=O)Oc1cccc(NC(=O)c2cc3cccc(O)c3[nH]2)c1 [Compound 5a3]    10.9
CCN(C)C(=O)Oc1cccc(CNC(=O)c2cc3cccc(O)c3[nH]2)c1 [Compound 5b3]    80.7

Quick check: IC50 of CCN(C)C(=O)Oc1cccc(CCNC(=O)c2cc3cc(O)ccc3[nH]2)c1 [Compound 5c2] ? 58.6

Thanks! And CCN(C)C(=O)Oc1cccc(CCNC(=O)c2cc3ccccc3[nH]2)c1 [Compound 5c1] ? 40

Another compound to look at: CCN(C)C(=O)Oc1cccc(CNC(=O)c2cc3ccccc3[nH]2)c1 [Compound 5b1] 78.4

Same question for CCN(C)C(=O)Oc1cccc(CNC(=O)c2cc3cc(O)ccc3[nH]2)c1 [Compound 5b2] please. 80

Likewise for CCN(C)C(=O)Oc1cccc(NC(=O)c2cc3cc(O)ccc3[nH]2)c1 [Compound 5a2] ? 206

Same lookup for CCN(C)C(=O)Oc1cccc(CCNC(=O)c2cc3cccc(O)c3[nH]2)c1 [Compound 5c3] , please. 26.8

---

- assayed_target: equine butyrylcholinesterase (eqBChE) (Equus caballus)
- Construct: purchased Sigma-Aldrich (Steinheim, Germany)
- Sequence (P81908 whole entry): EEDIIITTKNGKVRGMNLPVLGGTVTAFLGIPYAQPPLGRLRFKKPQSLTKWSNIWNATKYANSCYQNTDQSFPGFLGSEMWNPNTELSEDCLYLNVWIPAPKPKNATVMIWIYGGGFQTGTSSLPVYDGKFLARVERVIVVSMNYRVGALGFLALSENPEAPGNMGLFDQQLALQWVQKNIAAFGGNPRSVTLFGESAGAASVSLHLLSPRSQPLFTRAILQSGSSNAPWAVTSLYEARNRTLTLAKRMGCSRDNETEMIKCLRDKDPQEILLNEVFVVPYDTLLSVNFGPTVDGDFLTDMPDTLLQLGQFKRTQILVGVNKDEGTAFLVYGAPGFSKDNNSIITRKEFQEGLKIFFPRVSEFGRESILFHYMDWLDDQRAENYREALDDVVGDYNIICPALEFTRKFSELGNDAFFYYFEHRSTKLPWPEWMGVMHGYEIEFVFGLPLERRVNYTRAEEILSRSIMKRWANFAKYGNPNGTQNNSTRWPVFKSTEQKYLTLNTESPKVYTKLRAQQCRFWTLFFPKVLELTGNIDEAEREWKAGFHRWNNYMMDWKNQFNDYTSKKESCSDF
- assay_summary: BChE inhibition, adapted Ellman method
- Type: biochemical
- condition_label: IC50 (AChE)/IC50 (BChE)
Classification field. Basis: SI (selectivity index). Definitions: lo (below 3), mid (3 to below 9), hi (9 or more)

Solved cases below.
CCN(C)C(=O)Oc1cccc(CNC(=O)c2cc3ccccc3[nH]2)c1    hi
CCN(C)C(=O)Oc1cccc(CCNC(=O)c2cc3cc(O)ccc3[nH]2)c1    mid
CCN(C)C(=O)Oc1cccc(CNC(=O)c2cc3cccc(O)c3[nH]2)c1    hi
CCN(C)C(=O)Oc1cccc(CCNC(=O)c2cc3ccccc3[nH]2)c1    lo
CCN(C)C(=O)Oc1cccc(NC(=O)c2cc3cc(O)ccc3[nH]2)c1    hi
CCN(C)C(=O)Oc1cccc(CCNC(=O)c2cc3cccc(O)c3[nH]2)c1    lo

Returns: class label. Input: CCN(C)C(=O)Oc1cccc(NC(=O)c2cc3cccc(O)c3[nH]2)c1 lo

For CCN(C)C(=O)Oc1cccc(NC(=O)c2cc3ccccc3[nH]2)c1 then? mid
